For each entry below, report its Inhibition value.
- Test system: Staphylococcus aureus
- recorded conditions: Concentration 32 ug.mL-1; ASSAY_TEST Inhibition of Bacterial Growth; detection method Absorption (OD600); MEDIA CAMHB; plate type 384well; NBS; CORNING #3640; time 18 hr
- Description: Antibacterial activity against Staphylococcus aureus MRSA ATCC 43300 (CO-ADD:GP_020); MIC in CAMBH media, using NBS plates, by OD(600)
Potency and affinity values are given separately.
One number for each entry, in %.

Worked cases, answers included:
[[record]]
molecule = "N#Cc1cc(C#N)c(NCCCC2CCN(Cc3ccccc3)CC2)nc1N"
reported_metric = "Inhibition"
uom = "%"
endpoint_result = 49.11

[[record]]
molecule = "O=C(Cc1c[nH]c2ccccc12)NN=Cc1ccccc1"
reported_metric = "Inhibition"
uom = "%"
endpoint_result = 3.3

[[record]]
molecule = "Cc1ccccc1-c1c(C=N)c(N)nc2c1S(=O)(=O)OC2(C)C"
reported_metric = "Inhibition"
uom = "%"
endpoint_result = 11.29


For every item below, please supply its Inhibition.
1. N#CC1(Br)C(=NBr)Oc2ccc3ccccc3c2C1c1ccccc1[N+](=O)[O-] (stereo unspecified)
2. COc1ccc2c(c1)cc(CO)n2C

Found:
23.03
3.66

Lookup: What value of Inhibition has been reported for the following molecule? C#CCN(C)Cc1cc2cc(OCCCC3CCN(Cc4ccc(OC)c5ncccc45)CC3)ccc2n1C
Found: 8.98

----------
For each entry below, report its Inhibition value.
- Tested on: Escherichia coli
- recorded conditions: Concentration 32 ug.mL-1; ASSAY_TEST Inhibition of Bacterial Growth; detection method Absorption (OD600); MEDIA CAMHB; plate type 384well; NBS; CORNING #3640; time 18 hr
- Description: Antibacterial activity against Escherichia coli ATCC 25922 (CO-ADD:GN_001); MIC in CAMBH media using NBS plates, by OD(600)
Potency and affinity values are given separately.
Answers are plain numbers, in %.

[[record]]
compound = "Cc1ccc(C(O)SNNc2nc(C)nc3c2c(C)nn3-c2ccccc2)cc1 (centres undefined)"
endpoint_result = 5.46

[[record]]
compound = "C#CCN(C)Cc1cc2cc(OCCCCC3CCN(Cc4ccccc4)CC3)ccc2n1C"
endpoint_result = -8.55

[[record]]
compound = "CCOC(=O)c1c(C)nc2nc3c(c(N)c2c1-c1ccc(Cl)cc1)CCCCC3"
endpoint_result = -16.85

[[record]]
compound = "Cc1ccc(C2c3c(nc4c(c3N)CCCC4)Oc3ccc4ccccc4c32)cc1 (centres undefined)"
endpoint_result = -5.39

[[record]]
compound = "CC#CCN(Cc1ccccc1)c1nc(N)c(C#N)c(-c2ccccc2)c1C#N"
endpoint_result = -2.98


For every item below, please supply its Inhibition.
1. Cc1cnc(NC(=O)OC(C)(C)C)c(Br)c1
2. CSC1=NC(=Cc2cn(C(c3ccccc3)(c3ccccc3)c3ccccc3)c3ccccc23)C(=O)N1C
3. C#CCN(C)c1ncc(C#N)c(N)n1
4. COc1ccc(C2c3c(nc4c(c3N)CCCC4)Oc3ccc4ccccc4c32)c(OC)c1 (centres undefined)

Found:
-15.12
9.28
-4.49
3.89

For every item below, please supply its Inhibition.
1. C/C=C(/C#N)C(=O)OC
2. N#Cc1cc2c(N)n[nH]c2nc1N
3. COc1ccc(/C=C2/N=C(c3ccccc3)OC2=O)cc1OC
4. CNC(=O)c1c(Cl)c2cc(OCc3ccccc3)ccc2n1C

Found:
[-6.93, 10.46, -9.68, -12.2]

For every item below, please supply its Inhibition.
1. Nc1c2c(nc3c1C(c1ccc([N+](=O)[O-])cc1)c1ccc4ccccc4c1O3)CCCC2 (centres undefined)
2. N#Cc1c(N)nc(O)c(C#N)c1-c1ccccc1
3. N#Cc1cc2c(N)c3c(nc2nc1Cl)CCN(Cc1ccccc1)C3
4. O=C(Cc1ccccc1)N/N=C/c1c[nH]c2ccccc12

Found:
1. -12.22
2. -25.59
3. -4.39
4. 17.46

For every item below, please supply its Inhibition.
1. Cc1nn(-c2ccccc2)c2ncnc(Nc3ccccc3)c12
2. CCOC(=O)c1c(C)nc(N)c(C#N)c1-c1cccs1
3. Cn1ccnc1C1c2ccc3cccnc3c2Oc2nc3c(c(N)c21)CCC3 (centres undefined)
4. Cc1ccc(C2c3ccc4ccccc4c3Oc3nc4c(c(N)c32)CCCC4)cc1 (centres undefined)
5. O=C1OC(c2ccccc2)=NC1=Cc1ccc(Cl)cc1

Found:
1: 10.84; 2: -18.22; 3: -15.51; 4: -12.25; 5: 10.9
